target_under_test: T1, human CD98, endogenously expressed on Molt-4 human acute lymphoblastic leukemia cells (human)
T1 chain: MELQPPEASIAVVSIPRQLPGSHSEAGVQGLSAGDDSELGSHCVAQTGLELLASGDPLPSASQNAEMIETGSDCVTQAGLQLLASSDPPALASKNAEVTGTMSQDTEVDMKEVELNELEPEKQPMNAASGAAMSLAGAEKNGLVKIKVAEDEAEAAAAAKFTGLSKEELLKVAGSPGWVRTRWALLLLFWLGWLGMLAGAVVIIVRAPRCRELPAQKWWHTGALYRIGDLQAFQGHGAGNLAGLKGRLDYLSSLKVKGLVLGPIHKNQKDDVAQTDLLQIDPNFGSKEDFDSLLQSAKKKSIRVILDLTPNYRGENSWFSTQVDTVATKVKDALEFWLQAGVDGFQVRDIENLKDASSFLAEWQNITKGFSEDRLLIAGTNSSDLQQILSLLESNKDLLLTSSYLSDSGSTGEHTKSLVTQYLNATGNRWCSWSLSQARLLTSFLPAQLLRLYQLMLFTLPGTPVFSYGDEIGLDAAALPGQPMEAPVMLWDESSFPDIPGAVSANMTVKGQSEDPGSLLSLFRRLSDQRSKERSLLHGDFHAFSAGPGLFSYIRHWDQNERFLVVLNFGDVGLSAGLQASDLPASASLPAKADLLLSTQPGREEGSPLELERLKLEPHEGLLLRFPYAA
assay: cell-based or functional assay
quantity_measured: Molt4 IC50 (nM)

binder="CD98 (CL-huAb110)-ZT (antibody, human IgG1, kappa, L234A L235A, V domains shown, synthon ZT on reduced interchain cysteines (sites not given)) VH: EVQLVQSGAEVKKPGASVKVSCKASGFTFSDYTMAWVRQAPGQGLEWVATIIYDARGTYYRDAVKGRFTITRDNSTSTLYLELSSLRSEDTAVYYCARQSDDTYYYWGYFDYWGQGTMVTVSS VL: DIVMTQTPLSLPVTPGEPASINCKSSQSLLFSGNQKNYLAWYLQKPGQSPQLLIYWASTRQSGVPDRFSGSGSGTDFTLKISRVEAEDVGIYYCQQYYSSPYTFGQGTKLEIKR" quantity_measured="Molt4 IC50" test_value=0.156
binder="CD98 (CL-huAb102)-LB (antibody, human IgG1, kappa, L234A L235A, V domains shown, synthon LB on reduced interchain cysteines (sites not given)) VH: EVQLVESGGGLVQPGGSLRLSCATSGFTFIDYYMSWVRQAPGKGLEWLGFIRNKANRYTTEYSASVKGRFTISRDNSKSILYLQMNSLKTEDTAVYYCTRDRPAWFVYWGQGTLVTVSS VL: DIVMTQTPLSLPVTPGEPASISCKSSQSLLYSSNQKNYLAWYLQKPGQSPQLLIYWASTRESGVPDRFSGSGSGTDFTLKISRVEAEDVGVYYCQQYYSYPYTFGGGTKVEIKR" quantity_measured="Molt4 IC50" test_value=0.053
binder="CD98 (CL-huAb104)-ZT (antibody, human IgG1, kappa, L234A L235A, V domains shown, synthon ZT on reduced interchain cysteines (sites not given)) VH: EVQLVESGGGLVQPGGSLRLSCATSGFTFIDYYMSWVRQAPGKGLEWLGFIRNKAYGYTTEYSASVKGRFTISRDNSKSILYLQMNSLKTEDTAVYYCTRDRPAWFVYWGQGTLVTVSS VL: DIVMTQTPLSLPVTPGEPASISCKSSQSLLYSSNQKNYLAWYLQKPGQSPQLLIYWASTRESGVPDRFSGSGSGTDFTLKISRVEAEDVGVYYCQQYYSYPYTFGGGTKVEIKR" quantity_measured="Molt4 IC50" test_value=0.042
binder="CD98 (CL-huAb108-ZZ (antibody, human IgG1, kappa, L234A L235A, V domains shown, synthon ZZ on reduced interchain cysteines (sites not given)) VH: EVQLVQSGAEVKKPGASVKVSCKASGFTFSDYTMAWVRQAPGQGLEWVATIIYSGRGTYYRDAVKGRFTITRDNSTSTLYLELSSLRSEDTAVYYCARQSDDTYYYWGYFDYWGQGTMVTVSS VL: DIVMTQTPLSLPVTPGEPASINCKSSQSLLFSGNQKNYLAWYLQKPGQSPQLLIYWASTRQSGVPDRFSGSGSGTDFTLKISRVEAEDVGIYYCQQYYDVPYTFGQGTKLEIKR" quantity_measured="Molt4 IC50" test_value=0.199
binder="CD98 (CL-huAb102)-TV (antibody, human IgG1, kappa, L234A L235A, V domains shown, synthon TV on reduced interchain cysteines (sites not given)) VH: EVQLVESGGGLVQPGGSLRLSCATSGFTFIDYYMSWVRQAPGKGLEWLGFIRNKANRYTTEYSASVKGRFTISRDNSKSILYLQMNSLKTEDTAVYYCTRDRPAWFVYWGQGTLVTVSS VL: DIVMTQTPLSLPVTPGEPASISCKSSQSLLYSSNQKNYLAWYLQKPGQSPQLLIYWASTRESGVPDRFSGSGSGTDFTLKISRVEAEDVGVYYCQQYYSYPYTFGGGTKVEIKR" quantity_measured="Molt4 IC50" test_value=0.02
